tested on: HEL; assay: Minimum inhibitory concentration required to reduce virus induced plaque formation in HEL cell culture of virus TK- VZV (07-1) was measured; type: functional; conditions: Homo sapiens
This section presents compounds with their documented MIC values.
Give just the number in mg/L; leave the unit off.

O=c1[nH]c(=O)n([C@H]2C[C@H](O)[C@@H](CO)O2)cc1-c1cc(-c2ccccc2)no1 = 61

Inquiry: Provide one value: measured MIC of O=c1[nH]c(=O)n([C@H]2C[C@H](O)[C@@H](CO)O2)cc1/C=C/Br [BRIVUDINE]
Reply text: 8

Inquiry: Respond only with MIC recorded for O=c1[nH]c(=O)n([C@H]2C[C@H](O)[C@@H](CO)O2)cc1-c1cc(-c2ccc(Cl)cc2)no1
Reply text: 22
